- systemUnderTest: CPXV ortholog of L1 (cowpox virus)
- procedureDetails: cell-based or functional assay
quantityKind: PRNT Emax, CPXV MV+C' (%)

binder	unitSymbol	endpointResult
MPXV-26 (antibody, V domains shown) VH: QVQLVQSGGGLIQPGGSLRLSCVVSGFNVATNYMSWVRQAPGKGLEWVSVIYSGGSTYYADSVKGRFTISRDNSKNTVFLQMNSLRPEDTAAYYCAKGGGLGLDYWGQGTLVTVSS VL: QSALTQPPSASGSPGQSVTITCTGSSSDVGGYNYVSWYQQHPGKAPKVVIYEVNKRPSGVPHRFSGSKSGNTASLTVSGLQAEDEADYYCSSYAGTETVAFGGGTKLTVL	%	93
VACV-33 (antibody, V domains shown) VH: QLQLQESGPGLVKPSETLSLTCTVSGGSISSGGYYWGWIRQPPGKGLEWIASIYYSGSTYYNPSLKSRVTISVDTSKTQFSLKLSSVTAADTAVYYCARQSSSTGGFHYWGQGTLVTVSS VL: QSVLTQPPSVSGAPGQRVTISCTGSSSNIGAGYDVHWYQHLPGTAPKLLIYGNSNRPSGVPDRFSGSKSGTSASLAITGLQAEDEANYYCQSYDSSLSGREVFGGGTQLTVL	%	75
MPXV-83 (antibody, V domains shown) VH: QVQLVESGGGVVQPGRSLRLSCAASGFTFSSYSMHWVRQAPGKGLEWVAVISFDGRSNYYADSVRGRFTISRDNSKKTMYLQMNSLRLADTAVYYCARGGIGAPDPRNGLEVWGRGAPVTLSS VL: DIQMIQSPSSLSASVGDRVTISCQATQDISNSVNWYQQKPGKAPKLLIYDASTLETGVPSRFSGGGSGTHFTFTISSLQPEDIATYYCQQFHSLPPTFGQGPKGISK	%	78
MPXV-87 (antibody, V domains shown) V domain 1: QVQLVQSGAEVKKPGASVKVSCKASGYTFTSHGIIWVRQAPGQGLEWMGWISVYNDNTNSAQKFQDRVTMTTATSTSTAYMELRSLRSDDTAVYYCARSSSGPRYYYYGMDVWGQGTTSP V domain 2: QSVVTQPPSVSGAPGQRVTISCTGSSSNIGAGYAVHWYYQLPGIAPKLLIFGNNNRPSGVPDRFSGSKSGTSASLAITGLQAEDEADYYCQSYDSSLSGWVFGGGTQVTVL	%	82

Numbers sourced from patent US11667697.
